- system_tested: T1, APC4436-AA
- T1 chain: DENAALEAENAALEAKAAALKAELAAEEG
- assay_method_text: two-hybrid library CCmax;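 note: natural log of median RNA to DNA barcode read ratio; higher means stronger binding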
- experimental_setup: mean of both orientations
parameter: interaction score
The answer should be written as a number, with no unit following it.

The reported value for DENAALKAKIAALEAKNAALEAKIAALEG [4H1845-AA] in terms of interaction score is -1.83

The reported value for DKNAALEAKIAALEAEIAALEAEIAALKG [4H3330-AA] in terms of interaction score is -1.42

The reported value for DEIAALKAKIAALEAKIAALEAKNAALEG [4H807-AA] in terms of interaction score is -1.65

The reported value for DEAAALEAEAAALEAKAAALKAKLAAEKG [APC2237-AA] in terms of interaction score is -2.06

The reported value for DKAAALKAELAAEEAENAALEAKNAALKG [APC3645-AA] in terms of interaction score is -2.1

The reported value for DENAALEAEAAALEAELAAEEAENAALEG [APC4264-AA] in terms of interaction score is -2.34

The reported value for DENAALEAELAAIEAKLAAIKAKLAAIKG [APC4011-AA] in terms of interaction score is -1.48

The reported value for DKLAAIKAELAAIEAKLAAIKAKNAALKG [APC1015-AA] in terms of interaction score is -1.14

The reported value for DELAAIEAEAAALEAKAAALKAEAAALEG [APC232-AA] in terms of interaction score is -1.65

The reported value for DKIAALEAEIAALKAENAALKAKNAALEG [4H2143-AA] in terms of interaction score is -1.85

The reported value for DKLAAIKAENAALEAKAAALKAENAALEG [APC1434-AA] in terms of interaction score is -1.61
